Attribution: patent EP4663654A1

Overview of reported EC50/nM, CRE-luciferase reporter in amylin receptor/CRE-luc CHO cells across a group of binders:
Target: T1, human amylin receptor (AMY3) on CHO-K1/Ga15/AMY3 amylin receptor/CRE-luc cells (human, UniProt P30988 25-474; O60896 24-148)
T1 sequence (looked up) 1: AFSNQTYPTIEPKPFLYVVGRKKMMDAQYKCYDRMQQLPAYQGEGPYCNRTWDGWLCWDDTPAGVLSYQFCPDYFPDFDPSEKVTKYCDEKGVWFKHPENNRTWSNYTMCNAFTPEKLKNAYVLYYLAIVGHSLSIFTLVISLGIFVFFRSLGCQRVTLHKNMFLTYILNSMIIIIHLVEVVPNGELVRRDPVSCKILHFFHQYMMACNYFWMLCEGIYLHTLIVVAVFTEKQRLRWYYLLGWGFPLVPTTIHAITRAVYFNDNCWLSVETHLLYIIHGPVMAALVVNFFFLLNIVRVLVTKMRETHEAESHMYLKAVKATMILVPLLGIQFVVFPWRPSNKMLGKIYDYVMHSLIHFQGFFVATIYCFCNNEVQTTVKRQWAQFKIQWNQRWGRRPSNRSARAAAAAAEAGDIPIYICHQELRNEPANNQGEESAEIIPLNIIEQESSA
T1 sequence (looked up) 2: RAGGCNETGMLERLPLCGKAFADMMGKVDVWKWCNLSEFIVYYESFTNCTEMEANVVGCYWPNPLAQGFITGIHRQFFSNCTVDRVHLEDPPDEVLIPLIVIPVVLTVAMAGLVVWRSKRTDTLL
Experiment: cell-based or functional assay
Starred links: 1 amine or outer side, 2 acyl side, 3 side chain; linkers in the order of their positions; H or OH if unused. Non-standard residues stand in square brackets, D forms with d. Primed or numbered codes have the meaning given here. *: point of attachment. C20 diacid = O=C(O)CCCCCCCCCCCCCCCCCCC(=O)*; γGlu = O=C(O)[C@H](CCC(=O)[*:2])N[*:1]; Hyp = O=C(O)[C@@H]1C[C@@H](O)CN1; αMeN = C[C@](N)(CC(N)=O)C(=O)O; Inp′ = not defined here; Trx′ = not defined here; AEEA = NCCOCCOCC(=O)O
A complete answer gives the number followed by the unit.

Solved entries (count: 4):
{C20 diacid-γGlu}-ASQLSTAATQRLADFLRHSSN[αMeN]LKPILPPTNVGSNT[Hyp]-NH2 [polypeptide derivative M55]: 0.03 nM
{C20 diacid-Trx′}-ASQLSTAATQRLADFLRHFTDRDRDILPPTNVGSNTP-NH2 (reading uncertain) [polypeptide derivative M14]: 0.018 nM
{C20 diacid-Inp′-AEEA-AEEA}-ASQLSTAATQRLADFLRHFTDRDRDILPPTNVGSNTP-NH2 [polypeptide derivative M21]: 0.023 nM
{C20 diacid-Trx′-AEEA-AEEA}-ASQLSTAATQRLADFLRHFTDRDRDILPPTNVGSNTP-NH2 (reading uncertain) [polypeptide derivative M20]: 0.017 nM

Would you kindly look at the next entry?
// EC50/nM, CRE-luciferase reporter in amylin receptor/CRE-luc CHO cells value for {C20 diacid-Inp′}-ASQLSTAATQRLADFLRHFTDRDRDILPPTNVGSNTP-NH2 [polypeptide derivative M15] : 0.03 nM
